Value source: patent US20260294769A1

ASSAY: Stability Test-1: residual rate of 1% aqueous solutions stored at 50° C. (HPLC)
Type: physicochemical
REPORTED CONDITIONS: water; pH 8, 50° C., after 4 weeks, 1% aqueous solution
REPORTED METRIC: remaining at 672 h

Please review the following examples before continuing.
COMPOUND: O=C1OC(C(O)CO)C2=C1OCCO2 (stereo not drawn) [Synthesis Example 1, 2,3-O-(1,2-ethanediyl) ascorbic acid]
remaining at 672 h: < 30%

COMPOUND: O=C1OC(C(O)CO)C2=C1OCCCCO2 (stereo not drawn) [Synthesis Example 3, 2,3-O-(1,4-butanediyl) ascorbic acid]
remaining at 672 h: 50 to 80%

Name the recorded remaining at 672 h for O=C1O[C@H]([C@@H](O)CO)C(O)=C1O .
< 30%
